Listing: speed of sound of selected molecules
conditions: 308.15 K; 101 kPa; Liquid; Linear variable-path acoustic interferometer
Numbers after ± are expanded uncertainties.
measurement-label: speed of sound

# molecule, val
records = [
    ("CCCOC(C)=O [propyl ethanoate]", "1139 ± 5 m/s"),
    ("CCOC(C)=O [ethyl acetate]", "1101 ± 5 m/s"),
    ("CCCCOC(C)=O [butyl ethanoate]", "1155 ± 5 m/s"),
    ("O=S1(=O)CCCC1", "1576 ± 7 m/s"),
]

* * *

settings: 308.15 K; 101 kPa; Liquid; Capillary tube (Ostwald / Ubbelohde) method

# compound, viscosity (mPa·s)
rows = [
    ("O=S1(=O)CCCC1", 8.795),
    ("CCOC(C)=O [ethyl acetate]", 0.3622),
    ("CCCOC(C)=O [propyl ethanoate]", 0.4595),
    ("CCCCOC(C)=O [butyl ethanoate]", 0.5687),
]
